biological target: recombinant human CXCR2 (Homo sapiens, UniProt P25025); construct: TEV protease site; Gal4-VP16 transcription factor; assay: CXCR2 Tango assay; format: cell-based; settings: pIC50 (CXCR2 Tango assay), mean pIC50 of multiple test results; stimulated with 80 nM hCXCL1; reporter gene blue/green emission ratio
Sequence (P25025 whole entry, the tested form may be a part): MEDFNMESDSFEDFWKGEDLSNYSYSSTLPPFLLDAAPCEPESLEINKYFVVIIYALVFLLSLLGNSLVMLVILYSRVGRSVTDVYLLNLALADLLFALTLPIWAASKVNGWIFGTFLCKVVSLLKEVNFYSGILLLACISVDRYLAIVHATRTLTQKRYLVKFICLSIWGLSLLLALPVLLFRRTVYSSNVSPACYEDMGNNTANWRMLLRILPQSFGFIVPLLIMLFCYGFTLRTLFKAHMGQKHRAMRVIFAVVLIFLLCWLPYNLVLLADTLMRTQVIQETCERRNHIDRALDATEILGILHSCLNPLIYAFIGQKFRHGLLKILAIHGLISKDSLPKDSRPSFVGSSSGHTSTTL
pIC50: −log10 of the molar value. Where a name gives a salt, the structure may show the parent alone.
reported_metric: pIC50

compound | test_value
CC1=CCC[C@H]1NC(=O)Nc1ccc(Cl)c(S(=O)(=O)C2CCN(C3CCC3)CC2)c1O [Compound 83, trifluoroacetic acid salt] | ≥ 9.00

---

The molecules listed here are annotated with their IC50.
target: recombinant human CXCR2 (Homo sapiens, UniProt P25025); construct: TEV protease site; Gal4-VP16 transcription factor; assay: CXCR2 Tango assay; assay type: cell-based; settings: mean pIC50 of multiple test results; stimulated with 80 nM hCXCL1; reporter gene blue/green emission ratio; read-out: pIC50 (CXCR2 Tango assay) (converted)
reported_metric: IC50

molecule | target_of_assay | reported_metric | test_value
O=C(Nc1ccc(Cl)c(S(=O)(=O)C2CCOCC2)c1O)NC1CCC=C1Cl (stereo not shown) | recombinant human CXCR2 (Homo sapiens, UniProt P25025) | IC50 | ≤ 10 nM
CC1=CCC[C@H]1NC(=O)Nc1ccc(Cl)c(S(=O)(=O)C2(C)CCCOC2)c1O (stereo partly shown) | recombinant human CXCR2 (Homo sapiens, UniProt P25025) | IC50 | ≤ 10 nM
CC(C)(CCO)S(=O)(=O)c1c(Cl)ccc(NC(=O)N[C@@H]2CCC=C2Cl)c1O | recombinant human CXCR2 (Homo sapiens, UniProt P25025) | IC50 | ≤ 1 nM
CC1=CCC[C@H]1NC(=O)Nc1ccc(Cl)c(S(=O)(=O)[C@H]2C[C@H](N(C)C)C2)c1O | recombinant human CXCR2 (Homo sapiens, UniProt P25025) | IC50 | ≤ 1 nM
